Assay: acute toxicity tests with mice
Conditions: mouse, in vivo, po, peroral
PROPERTY_NAME: LD50

Challenge: Report LD50 for C[C@]12CC[C@H](O)CC1=CC[C@@H]1[C@@H]2CC[C@]2(C)C(=O)CC[C@@H]12 [DHEA, dehydroepiandrosterone] please.
Response given: ≥ 10000 mg/kg

###

Experiment: acute toxicity tests with mice
Details: mouse, in vivo, iv, injected intravenously
PROPERTY_NAME: LD50
Hey, just the number and the unit after it is fine.

Challenge: Report LD50 for C[C@]12CC[C@H](O)CC1=CC[C@@H]1[C@@H]2CC[C@]2(C)C(=O)CC[C@@H]12 [DHEA, dehydroepiandrosterone] please.
Response given: 274 mg/kg

###

Experiment: acute toxicity tests with mice
Conditions: mouse, in vivo, sc, injected subcutaneously
PROPERTY_NAME: LD50 (mg/kg)
Reply with just the number (in mg/kg).

Challenge: Report LD50 for C[C@]12CC[C@H](O)CC1=CC[C@@H]1[C@@H]2CC[C@]2(C)C(=O)CC[C@@H]12 [DHEA, dehydroepiandrosterone] please.
Response given: 899

Numbers sourced from patent EP0908183A1.
